MEASUREMENT TARGET: FIXa (Homo sapiens)
Sequence (P00740 47-191 limits assumed): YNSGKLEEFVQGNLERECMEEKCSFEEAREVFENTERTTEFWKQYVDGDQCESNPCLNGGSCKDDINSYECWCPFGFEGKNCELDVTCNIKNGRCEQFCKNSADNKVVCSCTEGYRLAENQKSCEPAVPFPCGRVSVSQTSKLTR
Sequence (P00740 227-461 limits assumed): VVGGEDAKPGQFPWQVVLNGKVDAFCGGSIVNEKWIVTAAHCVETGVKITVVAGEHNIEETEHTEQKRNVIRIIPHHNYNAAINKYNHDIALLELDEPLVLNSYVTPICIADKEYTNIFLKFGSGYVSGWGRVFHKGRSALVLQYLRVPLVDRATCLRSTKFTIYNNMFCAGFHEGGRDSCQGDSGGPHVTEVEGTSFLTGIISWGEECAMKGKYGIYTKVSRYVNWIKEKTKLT
TEST NAME: FXa generation assay with human FIXa
Format: biochemical
Design: purchased Haematologic Technologies
REPORTED CONDITIONS: FXa generation assay using human FIXa; class symbols
ENDPOINT LABEL: Vmax

>>> df
   macromolecule_sequence   measurement_target           result
0            KLTCLKSYCWLF  FIXa (Homo sapiens)  (++) ((++) 1-2)
1  VQRSTQLTCLYGGCRLFGWNYH  FIXa (Homo sapiens)      (+) ((+)<1)
2  WHERQQLTCLASYCGLFVGQVA  FIXa (Homo sapiens)      (+) ((+)<1)
3            QLTCLASECGLS  FIXa (Homo sapiens)      (+) ((+)<1)
4            KLTCRASYCQLF  FIXa (Homo sapiens)  (+++) ((+++)>2)

Sample SCVKHELKCLSSDSRLFSAVQR , system: FIXa (Homo sapiens). Its Vmax is (+) ((+)<1)

Sample KLTCLASYCFLF , system: FIXa (Homo sapiens). Its Vmax is (++++) ((++++)>3)

Sample AWPYHKPTCLASQCWQFLAQGS , system: FIXa (Homo sapiens). Its Vmax is (+) ((+)<1)

Sample RGSVHQPTCLGGYCGRLHSSWV , system: FIXa (Homo sapiens). Its Vmax is (+) ((+)<1)

Sample GCSSDKLTARTRHCSMFQPLSV , system: FIXa (Homo sapiens). Its Vmax is (+) ((+)<1)

Sample KLTCLSSYCWLF , system: FIXa (Homo sapiens). Its Vmax is (+++) ((+++)>2)
